# Log K2 values compiled below
# assay.overview: log K2 value of the compound
# Type: ADME
endpoint: Log K2

[[record]]
molecular_string = "O=C(O)CCn1ccc(=O)c(O)c1"
numeric_result = 7.48

[[record]]
molecular_string = "CCc1c(O)c(=O)ccn1CC"
numeric_result = 7.03

[[record]]
molecular_string = "Cc1c(O)c(=O)ccn1C"
numeric_result = 10.22

[[record]]
molecular_string = "Cn1ccc(=O)c(O)c1"
numeric_result = 7.58

[[record]]
molecular_string = "Oc1ccncc1O"
numeric_result = 7.64


Source: ChEMBL document CHEMBL1127328
